Test system: MYB mRNA
Experiment: Gene panel canonical junction qPCR assay, decrease in CJ mRNA, Table 3
Assay type: cell-based
Settings: decrease in canonical junction (CJ) mRNA, gene panel qPCR, Table 3
pIC50: −log10 of the molar value. Counter-ions that a name gives are not always drawn.
Form field: pIC50 (one value per entry).
Result type: pIC50

{"columns": ["Molecule", "Result"],
 "data": [
  ["Cn1cc2c(N3CCC(NC4CC4)CC3)cc(F)c(C(=O)Nc3ccc4c(c3)B(O)OC4)c2n1", "< 5.00"],
  ["COc1cc2nn(C)cc2c(Cl)c1NC(=O)c1c(F)cc(N2CCC(NC3CC3)CC2)c2cn(C)nc12 [Compound 445, trifluoroacetate]", "< 5.00"],
  ["CCNC1CCN(c2cc(F)c(C(=O)Nc3cn4c(C)c(C)nc4c(F)c3OC)c3nn(C)cc23)CC1", "< 5.00"],
  ["Cc1cn2cc(NC(=O)c3ccc(N4CCNCC4=O)c4[nH]cnc34)cc(F)c2n1", "< 5.00"],
  ["CCNC1CCN(c2cc(F)c(C(=O)Nc3cn4cc(C)nc(Cl)c4n3)c3nn(C)cc23)CC1", "> 7.00"],
  ["COc1c(NC(=O)c2ccc(N3CCC(NC4CC4)CC3)c3cn(C)nc23)cn2cc(C)nc(C)c12", "5.00 to 6.00"],
  ["CCNC1CCN(c2ccc(C(=O)Nc3cn4cc(CO)nc(C)c4n3)c3nn(C)cc23)CC1 [Compound 337, 2,2,2-trifluoroacetate]", "5.00 to 6.00"],
  ["Cc1cn2cc(NC(=O)c3ccc(N4CC5(CCNCC5)C4)c4cn(C)nc34)nc2c(C)n1", "< 5.00"]
]}

----------
Test system: MYB mRNA
Assay: Gene panel canonical junction qPCR assay, decrease in CJ mRNA, Table 3
Type: cell-based
Settings: decrease in canonical junction (CJ) mRNA, gene panel qPCR, Table 3
Counter-ions that a name gives are not always drawn.
Result type: IC50

{"columns": ["Compound", "Result"],
 "data": [
  ["Cc1cn2cc(NC(=O)c3ccc(N4CCNC(C)CC4)c4cn(C)nc34)nc2c(C)n1 (centres unmarked)", "1 to 10 µM"],
  ["COc1c(NC(=O)c2c(F)cc(N3CCC(NC4CC4)CC3)c3cn(C)nc23)cn2cc(C)nc2c1C", "1 to 10 µM"],
  ["CCNC1CCN(c2ccc(C(=O)Nc3ccc4nc(C)cn4c3)c3nn(C)cc23)CC1", "0.1 to 1 µM"],
  ["Cc1cn2cc(NC(=O)c3ccc(N4CCC(NC5CC56CC6)CC4)c4cn(C)nc34)cc(F)c2n1 (centres unmarked)", "< 0.1 µM"],
  ["Cc1cn2cc(NC(=O)c3c(F)cc(N4CC[C@H](NCC56CC(CO5)C6)C4)c4cn(C)nc34)cc(F)c2n1", "0.1 to 1 µM"],
  ["COc1cn2nc(C)cc2cc1C(=O)Nc1ccc(N2CCNCC2)c2cn(C)nc12", "> 10 µM"],
  ["CCNC1CCN(c2cc(F)c(C(=O)Nc3cn4cc(C#N)nc(C)c4n3)c3nn(C)cc23)CC1", "0.1 to 1 µM"],
  ["COc1c(NC(=O)c2c(F)cc(N3CCC(NC45CC(C4)C5)CC3)c3cn(C)nc23)cn2cc(C)nc2c1F", "< 0.1 µM"],
  ["COc1cc2nn(C)cc2cc1NC(=O)c1ccc(N(C)C2CCNCC2)c2cn(C)nc12", "0.1 to 1 µM"],
  ["Cc1cn2cc(NC(=O)c3c(F)cc(N4CCC(NC5CC5)CC4)c4cn(C)nc34)nc(-n3ccccc3=O)c2n1", "> 10 µM"],
  ["CCNC1CCN(c2ccc(C(=O)Nc3cn4cc(C)nc4c(OC)n3)c3nn(C)cc23)CC1", "< 0.1 µM"],
  ["CCNC1CCN(c2cc(O)c(C(=O)Nc3cn4cc(C)nc(C)c4n3)c3nn(C)cc23)CC1 [Compound 332, 2,2,2-trifluoroacetate]", "0.1 to 1 µM"],
  ["COc1cc2nn(C)cc2cc1NC(=O)c1ccc(N2CCC(NC3CC3)CC2)c2cc(CO)nn12 [Compound 443, trifluoroacetate]", "0.1 to 1 µM"],
  ["Cc1cn2cc(NC(=O)c3ccc(N4CCC(NC5CC5)CC4)c4cn(C)nc34)nc2c(Cl)n1", "0.1 to 1 µM"],
  ["CNc1cc(N2CCC(NC3CC3)CC2)c2cn(C)nc2c1C(=O)Nc1cc2cn(C)nc2cc1OC [Compound 435, 2,2,2-trifluoroacetate]", "> 10 µM"],
  ["CCNC1CCN(c2cc(F)c(C(=O)Nc3cc(F)c4nc(C)cn4c3)c3ccoc23)CC1", "> 10 µM"],
  ["CNC1(C)CCN(c2cc(F)c(C(=O)Nc3cn4cc(C)nc4c(F)c3OC)c3nn(C)cc23)CC1", "< 0.1 µM"]
]}
